Tested on: Pfa1 Gpx4−/− cells overexpressing human FSP1 (hFSP1)
EXPERIMENT_NOTES: Cell viability (Alamar blue), dose-response toxicity in Gpx4-knockout cells expressing hFSP1
Type: cell-based, murine
RECORDED_CONDITIONS: Mus musculus; hFSP1 WT, Δ curve (no Lip-1); Alamar blue; x axis iFSP1 (μM)
VALUE_KIND: IC50 (µM)
Answers are plain numbers, in µM.

Value of IC50 reported for the compound `Cc1ccc(-c2c(C#N)c(N)n3c(nc4ccccc43)c2C#N)cc1` is 0.45

* * *

Tested on: Pfa1 Gpx4−/− overexpressing hFSP1 Y296A/F360A
EXPERIMENT_NOTES: Cell viability (Alamar blue), hFSP1 Y296A/F360A
Format: cell-based, murine
RECORDED_CONDITIONS: Mus musculus, x axis iFSP1 (μM), read-out: IC50 (dose-response toxicity)
VALUE_KIND: IC50 (µM)
Answers are plain numbers, in µM.

Value of IC50 reported for the compound `Cc1ccc(-c2c(C#N)c(N)n3c(nc4ccccc43)c2C#N)cc1` is 5.62

* * *

Tested on: Pfa1 Gpx4−/− overexpressing chimeric FSP1 C2
EXPERIMENT_NOTES: Cell viability (Alamar blue), chimeric construct C2
Type: cell-based, murine
RECORDED_CONDITIONS: Mus musculus; chimeric construct C2 (human residues 59 to 120); x axis iFSP1 (μM); read-out: IC50 (dose-response toxicity)
VALUE_KIND: IC50 (µM)
Numbers only, in µM.

Response field IC50 (Pfa1 Gpx4−/− overexpressing chimeric FSP1 C2) for item `Cc1ccc(-c2c(C#N)c(N)n3c(nc4ccccc43)c2C#N)cc1` : 6.2

* * *

Tested on: Pfa1 Gpx4−/− overexpressing hFSP1 Y296A
EXPERIMENT_NOTES: Cell viability (Alamar blue), hFSP1 Y296A
Assay type: cell-based, murine
RECORDED_CONDITIONS: Mus musculus, x axis iFSP1 (μM), read-out: IC50 (dose-response toxicity)
VALUE_KIND: IC50 (µM)
Give bare numbers, in µM.

Value of IC50 reported for the compound `Cc1ccc(-c2c(C#N)c(N)n3c(nc4ccccc43)c2C#N)cc1` is 5.62
